target-or-test-system: Dihydroorotate dehydrogenase (quinone), mitochondrial (Plasmodium falciparum (isolate 3D7)) (UniProt Q08210)
Sequence (Q08210 whole entry, looked up): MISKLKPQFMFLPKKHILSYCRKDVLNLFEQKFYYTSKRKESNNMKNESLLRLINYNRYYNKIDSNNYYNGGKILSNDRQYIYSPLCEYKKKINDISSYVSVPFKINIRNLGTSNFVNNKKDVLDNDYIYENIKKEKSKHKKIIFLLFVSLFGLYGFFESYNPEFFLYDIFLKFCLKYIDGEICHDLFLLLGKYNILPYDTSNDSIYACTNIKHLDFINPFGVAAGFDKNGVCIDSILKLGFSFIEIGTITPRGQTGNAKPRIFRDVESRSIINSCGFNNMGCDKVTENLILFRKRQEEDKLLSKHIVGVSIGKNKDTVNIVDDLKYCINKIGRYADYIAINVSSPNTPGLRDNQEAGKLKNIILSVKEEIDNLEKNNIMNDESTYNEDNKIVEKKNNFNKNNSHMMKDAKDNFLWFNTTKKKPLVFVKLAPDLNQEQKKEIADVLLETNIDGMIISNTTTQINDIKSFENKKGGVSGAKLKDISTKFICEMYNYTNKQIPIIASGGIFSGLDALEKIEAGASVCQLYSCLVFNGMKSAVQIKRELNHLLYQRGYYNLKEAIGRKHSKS
test-protocol: PfDHODH enzyme inhibitors, primary screen, biochemical, C-terminal His tag, absorbance 600 nm (AID 1175);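 also: recombinant parasite enzyme with a five histidine tag at its C terminus; test concentration not given here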
run-conditions: DCIP absorbance 600 nm, higher = more signal, called active from +8 up or from −8 down
assay-metric: composite z-score
Just the number.

Some compounds with known composite z-score results, for comparison:
- compound: "COc1cccc(/C=C(\\C#N)C(=O)Nc2c(C)n(C)n(-c3ccccc3)c2=O)c1"
  composite z-score: -1.14
- compound: "COC(=O)[C@@]1(Cc2ccc(F)cc2)[C@H]2c3cc(C(=O)N4CCCC4)n(CC4CC4)c3C[C@H]2CN1C(=O)c1ccccc1"
  composite z-score: -0.559
- compound: "Cc1c(NC(=O)/C(C#N)=C/c2ccccc2Cl)c(=O)n(-c2ccccc2)n1C"
  composite z-score: -1.73
- compound: "CC(C)C(=C=CC[C@@H](O)c1cccc(OCCO)c1)C[C@@H](O)COCc1ccccc1"
  composite z-score: -3.34
- compound: "CC(C)(C)OC(=O)CC[C@]1(C(=O)N2CCCCC2)COC(c2ccc(OCCCO)cc2)=N1"
  composite z-score: -0.509
- compound: "[N-]=[N+]=NCc1ccccc1C[C@@]1(C(=O)N2CCCCC2)N=C(c2ccc(OCCCO)cc2)O[C@@H]1c1ccccc1CN=[N+]=[N-]"
  composite z-score: 0.669
- compound: "COCCCNC(=O)[C@@]1(c2ccc([N+](=O)[O-])cc2)CC(=O)N(C(C)C)[C@@H]1c1ccc(CO)cc1"
  composite z-score: -0.499
- compound: "[N-]=[N+]=Nc1ccccc1[C@@H]1OC(c2ccc(OCCCO)cc2)=N[C@]1(Cc1ccccc1)C(=O)NCc1ccccc1"
  composite z-score: 0.613

Query: Dear colleague, I am looking for the recorded composite z-score of the following compound: `CC(C)CNC(=O)[C@@H]1c2ccccc2C(=O)N(C2CCCCC2)[C@H]1c1ccc(CO)cc1`
Result: 0.246

Query: `O=C(N1CCOCC1)[C@@]1(CCS(=O)(=O)c2ccccc2)N=C(c2ccc(OCCCO)cc2)O[C@H]1c1ccccc1` ?
Result: 0.225

---

test-protocol: E. coli acrAB mutant growth effects, primary screen, E. coli filamentation inducers, strain DRC39, OD650, 24 h (AID 1178);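 also: growth measured as culture turbidity by optical density at 650 nm; test concentration not given here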
run-conditions: higher = more signal, called active from +8 up or from −8 down
Catalogue of z-score readings, one per entry.
Just the number.

- compound: "[N-]=[N+]=NCc1ccccc1[C@H]1OC(c2ccc(OCCCO)cc2)=N[C@@]1(CCS(=O)(=O)c1ccccc1)C(=O)NCc1ccccc1"
  z-score: 1.01
- compound: "CC(C)(C)OC(=O)CC[C@]12N=C(c3ccc(OCCCO)cc3)O[C@H]1c1ccccc1N(Cc1ccccc1)C2=O"
  z-score: 1.1
- compound: "NC(=O)N1C(=O)C2C(C1=O)C1C=C(CCCO)C2C(C2CC2)N1Cc1cccc(OC(F)(F)F)c1 (centres undefined)"
  z-score: -0.149

Query: Dear colleague, I am looking for the recorded z-score of the following compound: `C[C@@]12COC[C@]13C=C(Br)[C@H](C2)[C@@]1(CO1)C3=O`
Result: -0.651

---

target-or-test-system: E3 ubiquitin-protein ligase XIAP (Homo sapiens)
test-protocol: XIAP binders, primary screen, biophysical, small-molecule microarray, fluorescence 635 nm (AID 1181);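 also: score merges 667 nm emission and signal to noise over triplicate slides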
run-conditions: small-molecule microarray binding, higher = more signal
assay-metric: composite z-score
Just the number.

Query: Dear colleague, I am looking for the recorded composite z-score of the following compound: COc1cc2c(cc1O)C(c1ccc(CN3CCCC3)cc1)N(C)CC2 (centres undefined)
Result: 0.415

Query: C=CCC(OC(C)=O)[C@@H]1[C@@H](N(Cc2ccc(-c3ccccc3)cc2)C(=O)c2ccc(C)cc2)c2cc(OCCCO)ccc2N1C(=O)Cc1ccc2ccccc2c1 (some centres undefined) ?
Result: -0.02

Query: `C=C(COC)C(=O)CC[C@H](OC(C)=O)c1ccc(OCCO)cc1` ?
Result: -0.326

Query: `COCCOC(=O)N1C(=O)[C@@]2(c3cc(C#CCCO)ccc31)[C@H](C(=O)N1CCCCCCC1)[C@H]1C(=O)O[C@H](c3ccccc3)[C@H](c3ccccc3)N1[C@@H]2c1ccccc1OCCO` ?
Result: 0.113

---

target-or-test-system: Pro-neuregulin-1, membrane-bound isoform (Homo sapiens)
test-protocol: NRG1 binders on small-molecule microarrays, primary screen, psychiatric disease protein project, biochemical, small-molecule microarray, fluorescence 635/667 (AID 1075);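 also: score combines 667 nm spot fluorescence with signal to noise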
run-conditions: NRG1 binding, 635 nm fluorescence, higher = more signal
Catalogue of composite z-score readings, one per entry.
Just the number.

Some compounds with known composite z-score results, for comparison:
- compound: "COc1cc(NN2C(C(O)C3CCCCC3)C=CC3C(=O)N(c4ccccc4)C(=O)C32)cc(OC)c1OC (configuration not stated)"
  assay-metric: "composite z-score"
  observed-measurement: 1.67
- compound: "Cc1ccc([C@H]2C(C(=O)O)=C[C@@H](C(C)(C)C)N2S(=O)(=O)c2ccc(C)cc2)cc1"
  assay-metric: "composite z-score"
  observed-measurement: 1.54
- compound: "NCCCCCNC(=O)[C@@H]1C[C@@H]2C(=O)N3CCC[C@H]3C(=O)N2[C@@H]1c1ccc(O)cc1"
  assay-metric: "composite z-score"
  observed-measurement: 0.976

Query: Dear colleague, I am looking for the recorded composite z-score of the following compound: COc1ccc(C(O)C2C=CC3C(=O)N(c4ccccc4)C(=O)C3N2Nc2ccc(C(C)C)cc2)c2ccccc12 (configuration not stated)
Result: 1.49

Query: CC(=O)n1cc(C(O)C2C=CC3C(=O)N(c4ccccc4)C(=O)C3N2Nc2ccc(C(C)C)cc2)c2ccccc21 (configuration not stated) ?
Result: 1.95

Query: C=CCC(OC(C)=O)[C@@H]1[C@@H](N(Cc2ccc(-c3cccc(C(F)(F)F)c3)o2)C(=O)c2cccc3ccccc23)c2cc(OCCCO)ccc2N1C(=O)Cc1ccc(OC)cc1 (some centres not stated) ?
Result: 0.0701

Query: `C[C@]1(C(=O)NCC(F)(F)F)c2ccccc2C(=O)N(Cc2ccccc2)[C@H]1c1ccc(CO)cc1` ?
Result: 0.794

---

test-protocol: P. aeruginosa biofilm formation inhibitors, primary screen, PAO1 strain, BacTiter-Glo luminescence, LB-PBS (AID 1144)
run-conditions: 12 h, higher = more signal
Catalogue of z-score readings, one per entry.
Just the number.

- compound: "COc1ccc([Si](C)(C)[C@H]2[C@H](CCO)O[C@@]3(C(=O)N(Cc4ccccc4)c4ccc(N5CCOC5=O)cc43)[C@@H]2C)cc1"
  z-score: -0.521
- compound: "CC(C)[C@H]1NC(=O)[C@@]23C(=O)N[C@@H](Cc4ccccc4)C2[C@H](C)[C@@]2(C)O[C@H]2C3/C=C/CCC/C=C/CNC(=O)[C@H](Cc2ccccc2)NC1=O (stereo partly drawn)"
  z-score: 1.01
- compound: "COc1ccc(C(O)C2C=CC3C(=O)N(c4ccccc4)C(=O)C3N2Nc2ccc(C(C)C)cc2)c2ccccc12 (stereo not drawn)"
  z-score: -1.88
- compound: "CC(C)C(=C=CC[C@H](O)c1cccc(OCCO)c1)CCO"
  z-score: -0.461
- compound: "COCCCNC(=O)[C@@]1(c2ccc([N+](=O)[O-])cc2)CC(=O)N(CC23CC4CC(CC(C4)C2)C3)[C@@H]1c1ccc(CO)cc1I"
  z-score: 0.142

Query: Dear colleague, I am looking for the recorded z-score of the following compound: `CC(C)CNC(=O)[C@@]1(c2ccc([N+](=O)[O-])cc2)CC(=O)N(C2CCCCC2)[C@@H]1c1ccc(CO)cc1`
Result: 0.901

Query: COc1cc(C(O)C2C=CC3C(=O)N(Cc4ccccc4)C(=O)C3N2n2cnnc2)cc(OC)c1OC (stereo not drawn) ?
Result: -1.77

Query: `NC(=O)[C@H]1[C@@H]2C(=O)O[C@@H](c3ccccc3)[C@@H](c3ccccc3)N2[C@@H](c2ccc(O)cc2)[C@]12C(=O)Nc1ccc(C#CC3=CCCCC3)cc12` ?
Result: 0.363

---

System: Wnt5a (protein binding on small-molecule microarray)
test-protocol: Wnt5a binders on small-molecule microarray, primary screen, biophysical, 635/667 nm fluorescence (AID 1142);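 also: fluorescence read at 667 nm with signal to noise per printed feature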
run-conditions: 635 nm fluorescence, higher = more signal
assay-metric: composite z-score
Just the number.

- molecule: "C=CCC(OC(C)=O)[C@@H]1[C@@H](N(Cc2cccc3ccccc23)C(=O)c2ccc(-c3ccccc3)cc2)c2cc(OCCCO)ccc2N1C(=O)c1ccc(-c2ccccc2)cc1 (some centres undefined)"
  observed-measurement: 0.09
- molecule: "CCCCCCCCCCC(O)C1C=CC2C(=O)N(C)C(=O)C2N1Nc1cc(OC)c(OC)c(OC)c1 (centres undefined)"
  observed-measurement: -0.131
- molecule: "[N-]=[N+]=NCc1ccccc1[C@H]1OC(c2ccc(OCCCO)cc2)=N[C@@]1(Cc1ccccc1)C(=O)NCCN1CCOCC1"
  observed-measurement: 0.526
- molecule: "O=C1O[C@H](c2ccccc2)[C@H](c2ccccc2)N2[C@H]1[C@@H](C(=O)O)[C@]1(C(=O)Nc3ccc(C#CC4(O)CCCCCC4)cc31)[C@H]2c1ccc(O)cc1"
  observed-measurement: -0.243
- molecule: "Cc1ccc(S[C@]2(C(=O)NC(C)C)CC(=O)N(Cc3ccccc3Cl)[C@@H]2c2ccc(CO)cc2)cc1"
  observed-measurement: -0.323

Query: Dear colleague, I am looking for the recorded composite z-score of the following molecule: `[N-]=[N+]=NCc1ccccc1C[C@@]1(C(=O)N2CCCCC2)N=C(c2ccc(OCCCO)cc2)O[C@@H]1c1ccccc1CN=[N+]=[N-]`
Result: 0.599

Query: `C=CCNC(=O)[C@H]1[C@@H]2C(=O)O[C@@H](c3ccccc3)[C@@H](c3ccccc3)N2[C@@H](c2ccc(O)cc2)[C@]12C(=O)N(C(=O)OCCOC)c1ccc(C#CCC(C(=O)OC)C(=O)OC)cc12` ?
Result: 0.027

Query: `O=C1[C@@]23C=C(Br)[C@H](C[C@@H]2COC3)[C@@]12CO2` ?
Result: 0.731

Query: `COc1ccc([Si](C)(C)[C@@H]2[C@@H](CCn3cc([C@H](O)c4ccccc4)nn3)O[C@]3(C(=O)N(c4ccccc4)c4ccccc43)[C@H]2C)cc1` ?
Result: -0.0872
